System: FGFR4
Details: concentration: 1 μM, replicates: in singlicate; n = 1;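 note: KINOMEscan kinase panel screen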

{"molecule": "COc1cccc(-c2ccc3c(NC(=O)C4CC4)n[nH]c3n2)c1 [SB-710903]", "unit": "%", "%Inh": 9}
{"molecule": "Cc1cccc(Nc2nc(N[C@H]3CCNC3)ncc2C(N)=O)c1.Cl [GSK2197149]", "unit": "%", "%Inh": 0}
{"molecule": "COc1cc2c(cc1OCCN1CCNCC1)ncc1c3ccc(C#N)cc3[nH]c21", "unit": "%", "%Inh": 0}
{"molecule": "CCn1c(-c2nonc2N)nc2c(C#CC(C)(C)O)ncc(OCCCCN)c21.O=C(O)C(F)(F)F.O=C(O)C(F)(F)F [GSK507274]", "unit": "%", "%Inh": 9}
{"molecule": "O=C(Nc1cccc(Oc2ccc3nc(NC(=O)C4CC4)cn3n2)c1)c1ccccc1C(F)(F)F", "unit": "%", "%Inh": 2}
{"molecule": "Clc1ccc(-c2nn3ncccc3c2-c2ccnc(Nc3ccc4c(c3)OCCO4)n2)cc1 [GW829116]", "unit": "%", "%Inh": 0}

====

Below, each of the compounds is paired with its reported %Inh value.
Tested on: MKNK1
Settings: concentration: 1 μM, replicates: in singlicate; n = 1
readout.label: %Inh (%)

{"compound": "CN(C)S(=O)(=O)c1cc(-c2ccc3nccc(-c4cccc(S(N)(=O)=O)c4)c3c2)cnc1N", "test.system": "MKNK1", "readout.label": "%Inh", "unit": "%", "measured.result": 0}
{"compound": "COc1cccc(NC(=O)NC2CCN(c3ccnc(Nc4cc(OC)c(OC)c(OC)c4)n3)C2)c1 (stereo not drawn)", "test.system": "MKNK1", "readout.label": "%Inh", "unit": "%", "measured.result": 36}
{"compound": "O=C(Nc1n[nH]c2cc(-c3ccoc3)ccc12)C1CC1", "test.system": "MKNK1", "readout.label": "%Inh", "unit": "%", "measured.result": 0}
{"compound": "Cc1ccc(C(=O)N2CC[C@@H](O)C2)cc1-n1c(C)cc(OCc2ccc(F)cc2F)c(Br)c1=O", "test.system": "MKNK1", "readout.label": "%Inh", "unit": "%", "measured.result": 0}
{"compound": "c1ccc(-c2n[nH]cc2Nc2ccnc3ccccc23)nc1", "test.system": "MKNK1", "readout.label": "%Inh", "unit": "%", "measured.result": 13}
{"compound": "Cn1cc(-c2[nH]c3cc(NC(=O)[C@H](N)C4CCCCC4)cc4c3c2C=NNC4=O)cn1", "test.system": "MKNK1", "readout.label": "%Inh", "unit": "%", "measured.result": 100}
{"compound": "COCCOCCOc1cc2ncc3c4ccc(C#N)cc4[nH]c3c2cc1OC", "test.system": "MKNK1", "readout.label": "%Inh", "unit": "%", "measured.result": 95.4}
{"compound": "COc1ccc(-c2coc3ccc(-c4nnc(SCc5ccc(OC)c(C(F)(F)F)c5)o4)cc23)cc1", "test.system": "MKNK1", "readout.label": "%Inh", "unit": "%", "measured.result": 0}
{"compound": "CC(=O)Nc1nc2cnc(Nc3cc(NC(=O)c4cccc(C5(C#N)CC5)c4Cl)ccc3C)nc2s1", "test.system": "MKNK1", "readout.label": "%Inh", "unit": "%", "measured.result": 16}

====

Below, each of the compounds is paired with its reported %Inh value.
Test system: PIK4CB
Construct: gene PI4KB
Conditions: concentration: 1 μM, replicates: in singlicate; n = 1

{"compound": "Cc1ccc(C)c(NC(=O)NC2CCN(c3ccnc(Nc4ccc(F)cc4)n3)C2)c1 (centres unmarked)", "unit": "%", "%Inh": 0}
{"compound": "NCCCC(NC(=O)c1cc(Br)c(-c2ccnc3[nH]ccc23)s1)c1ccccc1.O=C(O)C(F)(F)F.O=C(O)C(F)(F)F (centres unmarked)", "unit": "%", "%Inh": 0}
{"compound": "Cc1ccc(C(=O)N2CC[C@@H](O)C2)cc1-n1c(C)cc(OCc2ccc(F)cc2F)c(Br)c1=O", "unit": "%", "%Inh": 0}
{"compound": "O=c1[nH]cc(-c2ccc(N3CCOCC3)cc2)c2sc(-c3cn[nH]c3)cc12", "unit": "%", "%Inh": 8}
{"compound": "C[C@@H](Oc1cc(-n2cnc3cc(-c4ccnc(NCCS(C)(=O)=O)c4)ccc32)sc1C(N)=O)c1ccccc1Cl", "unit": "%", "%Inh": 9}

====

Test system: MARK1
Conditions: concentration: 1 μM, replicates: in singlicate; n = 1

{"molecule": "Nc1n[nH]c2cnc(-c3ccccc3)cc12 [SB-642124]", "%Inh (%)": 0}
{"molecule": "Cl.Cl.NCC(NCc1ccc(-c2ccnc3[nH]ccc23)s1)c1ccccc1 (centres unmarked) [GSK1321565]", "%Inh (%)": 0}
{"molecule": "Oc1cc(Nc2ccnc3cc(I)ccc23)ccc1F [GW552771]", "%Inh (%)": 0}
{"molecule": "Cl.c1ccc(-c2ccc3c(Nc4ccc5[nH]ncc5c4)ccnc3c2)nc1 [GW440137]", "%Inh (%)": 0}
{"molecule": "CCn1c(-c2nonc2N)nc2c(C#CC(C)(C)O)nc(OC[C@H](N)c3ccccc3)cc21 [GSK943949]", "%Inh (%)": 54}
{"molecule": "c1ccc(-c2n[nH]cc2Nc2ccnc3ccccc23)nc1 [GW694077]", "%Inh (%)": 0}
{"molecule": "COc1cccc(C2=C(Nc3ccc(Cl)c(C(=O)O)c3)C(=O)NC2=O)c1 [SB-390769]", "%Inh (%)": 0}
{"molecule": "O=C(O)C(F)(F)F.O=C(O)C(F)(F)F.O=c1[nH]ccc2nc(N[C@@H]3CCCNC3)nc(Nc3ccc(S(=O)(=O)N4CCOCC4)cc3)c12 [GSK2177277]", "%Inh (%)": 95.3}

====

System: PIK3CA
Settings: concentration: 1 μM, replicates: in singlicate; n = 1

{"mol": "COc1ccc(CNC(=O)NC2CCN(c3ccnc(Nc4ccc(F)cc4)n3)CC2)cc1", "%Inh, %": 0}
{"mol": "CNC(=O)c1ccccc1Nc1nc(Nc2ccc(N3CCOCC3)cc2)ncc1Cl.Cl", "%Inh, %": 15}
{"mol": "C[C@@H]1CC[C@@H](C(=O)Nc2ccccc2)CN1c1cc(-c2ccc3c(N)n[nH]c3c2)nc(N)n1", "%Inh, %": 0}
{"mol": "CN(c1ccc(NC(=O)Nc2cc(C(F)(F)F)ccc2F)cc1)c1ccnc(Nc2ccc(S(N)(=O)=O)cc2)n1", "%Inh, %": 3}
{"mol": "Nc1ncc(-c2cccnc2)c2scc(-c3ccc4c(c3)CCN4C(=O)Cc3ccccc3)c12", "%Inh, %": 0}
{"mol": "CCn1c(-c2nonc2N)nc2c(C#CC(C)(C)O)nc(OC[C@H](N)c3ccccc3)cc21", "%Inh, %": 0}
{"mol": "Nc1n[nH]c2cnc(-c3ccccc3)cc12", "%Inh, %": 0}
{"mol": "O=C(Nc1n[nH]c2cc(-c3ccoc3)ccc12)C1CC1", "%Inh, %": 0}
{"mol": "COc1cccc(C2=C(Nc3ccc(Cl)c(C(=O)O)c3)C(=O)NC2=O)c1", "%Inh, %": 10}
{"mol": "FC(F)(F)c1ccc(/C=C/c2cncnc2Nc2ccc3[nH]c(Cc4ccccc4)nc3c2)cc1", "%Inh, %": 0}

====

System: GRK1
Settings: concentration: 1 μM, replicates: in singlicate; n = 1
Below, each of the compounds is paired with its reported %Inh value.

{"compound": "Nc1n[nH]c2cnc(-c3ccccc3)cc12", "%Inh / %": 0}
{"compound": "COc1ccc(CNC(=O)NC2CCN(c3ccnc(Nc4ccc(F)cc4)n3)CC2)cc1", "%Inh / %": 0}
{"compound": "CN(C)Cc1ccc(-c2ccc3c(Nc4ccc(Oc5ccccn5)cc4)ccnc3c2)o1", "%Inh / %": 0}
{"compound": "NCCCC(NC(=O)c1cc(Br)c(-c2ccnc3[nH]ccc23)s1)c1ccccc1.O=C(O)C(F)(F)F.O=C(O)C(F)(F)F (centres unmarked)", "%Inh / %": 68}
{"compound": "C[C@@H]1CC[C@@H](C(=O)Nc2ccccc2)CN1c1cc(-c2ccc3c(N)n[nH]c3c2)nc(N)n1", "%Inh / %": 0}
{"compound": "CCCCc1nn2ncccc2c1-c1ccnc(Nc2ccc(N3CCN(C)CC3)cc2)n1", "%Inh / %": 0}
{"compound": "O=C(Nc1cccc(-c2nn3ncccc3c2-c2ccnc(Nc3ccccc3)n2)c1)c1c(F)cccc1F", "%Inh / %": 0}
{"compound": "COc1cccc(-c2ccc3c(NC(=O)C4CC4)n[nH]c3n2)c1", "%Inh / %": 5}

====

Test system: ZAP70
Conditions: concentration: 1 μM, replicates: in singlicate; n = 1
Below, each of the compounds is paired with its reported %Inh value.
readout.label: %Inh (%)

{"compound": "c1ccc(-c2n[nH]cc2Nc2ccnc3ccccc23)nc1 [GW694077]", "readout.label": "%Inh", "unit": "%", "measured.result": 0}
{"compound": "COC(=O)Nc1nc2cc(Oc3ccc(NC(=O)Nc4cc(C(F)(F)F)ccc4F)cn3)ccc2[nH]1.Cl.Cl [GW681170]", "readout.label": "%Inh", "unit": "%", "measured.result": 0}
{"compound": "Cc1occc1-c1ncc(OC[C@@H](N)Cc2c[nH]c3ccccc23)cc1-c1ccc2[nH]nc(C)c2c1.O=C(O)C(F)(F)F [GSK682037]", "readout.label": "%Inh", "unit": "%", "measured.result": 0}
{"compound": "CSc1cccc2c(-c3ccncn3)c(-c3ccc(F)cc3)nn12 [GW514786]", "readout.label": "%Inh", "unit": "%", "measured.result": 8}
{"compound": "CCCCc1nn2ncccc2c1-c1ccnc(Nc2ccc(N3CCN(C)CC3)cc2)n1 [GW684941]", "readout.label": "%Inh", "unit": "%", "measured.result": 0}

The values you see were collected from paper PMC5540273.
